Target: Perforin-1 (Homo sapiens)
Assay: Inhibition of perforin released from human KHYG-1 NK cells assessed as inhibition of perforin mediated lysis of human K562 cells at 20 uM in presence of 0.1% BSA by [51Cr] release assay
Format: cell-based
measured-parameter: inhibition (%)

Worked cases, answers included:
{"columns": ["mol-smiles", "assayed-target", "reported"],
 "data": [
  ["N#Cc1c(-c2ccc(OCCO)cc2)c(C#N)c2nc3ccccc3n2c1N", "Perforin-1 (Homo sapiens)", 15],
  ["CN(C)C(=O)CCc1ccc(-c2c(C#N)c(N)n3c(nc4ccccc43)c2C#N)cc1", "Perforin-1 (Homo sapiens)", 49]
]}

P: N#Cc1c(-c2ccc(C(=O)NCCCO)cc2)c(C#N)c2nc3ccccc3n2c1N
Q: CCCNC(=O)COc1ccc(-c2c(C#N)c(N)n3c(nc4ccccc43)c2C#N)cc1
R: Cc1cc2c(c(=S)[nH]1)C(=O)O/C2=C\c1csc2ccccc12
Sort the compounds on inhibition; start with the lowest figure. Provide the labels, sequenced as the question asks.
P, Q, R
